Below: a set of entries, each annotated with reported pIC50.
biological target: K-Ras G13C (Homo sapiens (Human), UniProt P01116+P62937, G13C); assay: Ras-Raf (BRAF RBD) disruption / FRET / MOA assay, KRAS G13C; format: biochemical; details: KRAS G13C; Ras-Raf disruption/FRET/MOA assay; read-out: IC50* KRAS G13C FRET data
Sequence (P01116-2 other isoform, or with tags, fused parts or gaps G13C): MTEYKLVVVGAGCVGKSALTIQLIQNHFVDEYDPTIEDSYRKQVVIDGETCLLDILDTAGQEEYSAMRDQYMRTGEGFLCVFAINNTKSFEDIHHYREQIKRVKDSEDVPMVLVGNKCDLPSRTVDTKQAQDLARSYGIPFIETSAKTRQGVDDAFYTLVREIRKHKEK
Sequence (P62937 whole entry): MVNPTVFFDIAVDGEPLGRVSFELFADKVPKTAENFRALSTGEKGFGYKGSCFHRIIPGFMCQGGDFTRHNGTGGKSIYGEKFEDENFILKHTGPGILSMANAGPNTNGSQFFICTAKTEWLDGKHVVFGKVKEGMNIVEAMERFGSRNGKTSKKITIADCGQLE
pIC50: −log10 of the molar value.

Reference set (2 entries):
MOLECULE	TARGET_OR_TEST_SYSTEM	pIC50
CO[C@@H](C)c1ncccc1-c1c2c3nc(ccc3n1CC(F)(F)F)-c1cccc(c1)C[C@H](NC(=O)[C@@H](COC1CN(C(=O)C#CC(C)(C)N(C)C)C1)C(C)C)C(=O)N1CCC[C@H](N1)C(=O)OCC(C)(C)C2 (atropisomer, axis not shown)	K-Ras G13C (Homo sapiens (Human), UniProt P01116+P62937, G13C)	< 5.00
C=CS(=O)(=O)N1CCC2(CCN([C@H](C(=O)N[C@H]3Cc4cc(O)cc(c4)-c4ccc5c(c4)c(c(-c4cccnc4[C@H](C)OC)n5CC)CC(C)(C)COC(=O)[C@@H]4CCCN(N4)C3=O)C(C)C)C2=O)CC1 (atropisomer, axis not shown)	K-Ras G13C (Homo sapiens (Human), UniProt P01116+P62937, G13C)	> 8.00

Briefly, pIC50 measured for CCn1c(-c2cccnc2[C@H](C)OC)c2c3cc(ccc31)-c1cnc(o1)C[C@H](NC(=O)[C@@H](COC1CN(C(=O)C#CC(C)(C)N(C)C)C1)C(C)C)C(=O)N1CCC[C@H](N1)C(=O)OCC(C)(C)C2 (atropisomer, axis not shown) : < 5.00

get_value(item= CCn1c(-c2cccnc2[C@H](C)OC)c2c3cc(ccc31)-c1csc(n1)C[C@H](NC(=O)[C@H](C(C)C)N(C)C(=O)N(C)C1CN(C(=O)/C=C/[C@@H]3CCCN3C)C1)C(=O)N1CCC[C@H](N1)C(=O)OCC(C)(C)C2 (atropisomer, axis not shown) , readout=pIC50) returns 6.00 to 7.00

The reported pIC50 of the molecule C=CC(=O)N1C[C@H](C(=O)N(C)[C@H](C(=O)N[C@H]2Cc3cccc(c3)-c3ccc4c(c3)c(c(-c3cccnc3[C@H](C)OC)n4CC)CC(C)(C)COC(=O)[C@@H]3CCCN(N3)C2=O)C(C)C)[C@@H](C)C1 (atropisomer, axis not shown) was 6.00 to 7.00

Query CCn1c(-c2cccnc2COC)c2c3cc(ccc31)-c1cc(O)cc(c1)C[C@H](NC(=O)[C@H](C(C)C)N(C)C(=O)[C@H]1CCN(C(=O)/C=C/CN3CCOCC3)C1)C(=O)N1CCC[C@H](N1)C(=O)OCC(C)(C)C2 yields pIC50 of 5.00 to 6.00

pIC50 reading for C=CC(=O)N1C[C@H](C)N(C(=O)N(C)[C@H](C(=O)N[C@H]2Cc3nc(cs3)-c3ccc4c(c3)c(c(-c3cccnc3[C@H](C)OC)n4CC)CC(C)(C)COC(=O)[C@@H]3CCCN(N3)C2=O)C(C)C)C[C@@H]1C (atropisomer, axis not shown) : 7.00 to 8.00

Record summary for C=CC(=O)N(C)[C@@H]1C[C@H]1N(C)C(=O)N(C)[C@H](C(=O)N[C@H]1Cc2nc(cs2)-c2ccc3c(c2)c(c(-c2cccnc2[C@H](C)OC)n3CC)CC(C)(C)COC(=O)[C@@H]2CCCN(N2)C1=O)C(C)C (atropisomer, axis not shown) : reported pIC50 = 6.00 to 7.00

The recorded pIC50 for CCn1c(-c2cccnc2[C@H](C)OC)c2c3cc(ccc31)N1CCC[C@@H](C[C@H](NC(=O)[C@H](C(C)C)N(C)C(=O)[C@H]3CCN(C(=O)C#CC(C)(C)N4CCC4)C3)C(=O)N3CCC[C@H](N3)C(=O)OCC(C)(C)C2)C1 (atropisomer, axis not shown) is < 5.00

// pIC50 value for C=CC(=O)N1CC[C@H](C(=O)N(C)[C@H](C(=O)N[C@H]2Cn3cnc(n3)-c3ccc4c(c3)c(c(-c3cccnc3[C@H](C)OC)n4CC)CC(C)(C)COC(=O)[C@@H]3CCCN(N3)C2=O)C(C)C)C1 (atropisomer, axis not shown) : 5.00 to 6.00

In plain terms, CCn1c(-c2cccnc2[C@H](C)OC)c2c3cc(ccc31)N1CCC[C@@H](C[C@H](NC(=O)[C@H](C(C)C)N(C)C(=O)C3(F)CCN(C(=O)C#CC(C)(C)N(C)C)CC3)C(=O)N3CCC[C@H](N3)C(=O)OCC(C)(C)C2)C1 (atropisomer, axis not shown) [Example A615] has a documented pIC50 of < 5.00

Entry under test: CCn1c(-c2cccnc2[C@H](C)OC)c2c3cc(ccc31)-c1csc(n1)C[C@H](NC(=O)[C@H](C(C)C)N(C)C(=O)N1CCC13CN(C(=O)/C=C/CN(C)C)C3)C(=O)N1CCC[C@H](N1)C(=O)OCC(C)(C)C2 (atropisomer, axis not shown) . Its pIC50 was 6.00 to 7.00

Looking up C=CC(=O)N(C)CCN1CCN(C(=O)N(C)[C@H](C(=O)N[C@H]2Cc3nc(cs3)-c3ccc4c(c3)c(c(-c3cccnc3[C@H](C)OC)n4CC)CC(C)(C)COC(=O)[C@@H]3CCCN(N3)C2=O)C(C)C)CC1 (atropisomer, axis not shown) , I see its pIC50 listed as 7.00 to 8.00

CCn1c(-c2cccnc2[C@H](C)OC)c2c3cc(ccc31)-c1csc(n1)C[C@H](NC(=O)[C@H](C(C)C)N(C)C(=O)N1CCC3(CC1)CN(C(=O)/C=C/CN1CCOCC1)C3)C(=O)N1CCC[C@H](N1)C(=O)OCC(C)(C)C2 (atropisomer, axis not shown) has a reported pIC50 of 6.00 to 7.00

---

Listing of entries alongside the reported pIC50.
molecular target: NRAS WT (Homo sapiens (Human), UniProt P01111+P62937); assay: Ras-Raf (BRAF RBD) disruption / FRET / MOA assay, NRAS WT; type: biochemical; details: read-out: IC50* NRAS WT FRET data
Sequence (P01111 whole entry, one chain of several): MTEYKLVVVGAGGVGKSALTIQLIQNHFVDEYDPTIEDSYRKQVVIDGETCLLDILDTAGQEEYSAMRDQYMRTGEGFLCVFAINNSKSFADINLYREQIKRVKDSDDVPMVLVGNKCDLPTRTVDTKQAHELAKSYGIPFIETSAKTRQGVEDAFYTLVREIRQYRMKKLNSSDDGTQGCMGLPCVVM
pIC50: −log10 of the molar value.

The examples below pair each entry with its known result.
MOLECULE	TARGET_OR_TEST_SYSTEM	pIC50
C=CC(=O)N1CC[C@H](C(=O)N(C)[C@H](C(=O)N[C@H]2Cc3cc(cc(C(F)F)c3)-c3ccc4c(c3)c(c(-c3cccnc3[C@H](C)OC)n4CC)CC(C)(C)COC(=O)[C@@H]3CCCN(N3)C2=O)C(C)C)C1 (atropisomer, axis not shown)	NRAS WT (Homo sapiens (Human), UniProt P01111+P62937)	5.00 to 6.00
CCn1c(-c2cccnc2[C@H](C)OC)c2c3cc(ccc31)-c1csc(n1)C[C@H](NC(=O)[C@H](C(C)C)N(C)C(=O)N1CCC3(CC1)CN(C(=O)/C=C/C(F)F)C3)C(=O)N1CCC[C@H](N1)C(=O)OCC(C)(C)C2 (atropisomer, axis not shown)	NRAS WT (Homo sapiens (Human), UniProt P01111+P62937)	6.00 to 7.00
C=C(OC)C(=O)N1CC(N(C)C(=O)N(C)[C@H](C(=O)N[C@H]2Cc3nc(cs3)-c3ccc4c(c3)c(c(-c3cccnc3[C@H](C)OC)n4CC)CC(C)(C)COC(=O)[C@@H]3CCCN(N3)C2=O)C(C)C)C1 (atropisomer, axis not shown)	NRAS WT (Homo sapiens (Human), UniProt P01111+P62937)	6.00 to 7.00

Okay, next one:
Short answer on NRAS WT (Homo sapiens (Human), UniProt P01111+P62937) for CCn1c(-c2cccnc2[C@H](C)OC)c2c3cc(ccc31)-c1cccc(c1)C[C@H](NC(=O)[C@H](C(C)C)N1CO[C@@]3(CCN(C(=O)/C=C/CN(C)C)C3)C1=O)C(=O)N1CCC[C@H](N1)C(=O)OCC(C)(C)C2 (atropisomer, axis not shown) , pIC50: 6.00 to 7.00

---

biological target: NRAS Q61R (Homo sapiens (Human), UniProt P01111+P62937, Q61R); test: Ras-Raf (BRAF RBD) disruption / FRET / MOA assay, NRAS Q61R; assay type: biochemical; settings: NRAS Q61R; Ras-Raf disruption/FRET/MOA assay; read-out: IC50* NRAS Q61R FRET data
Sequence (P01111 whole entry Q61R, one chain of several): as the sequence (P01111 whole entry, one chain of several) above, with Q61R counted along it
pIC50: −log10 of the molar value.
# Lookup of reported pIC50 keyed by entry

Illustrative cases are given below, each with its answer.
MOLECULE	pIC50
C=CC(=O)N1CC[C@H](C(=O)N(C)[C@H](C(=O)N[C@H]2Cc3cccc(c3)-c3ccc4c(c3)c(c(-c3cnccc3[C@H](C)OC)n4CC)CC(C)(C)COC(=O)[C@@H]3CCCN(N3)C2=O)C(C)C)C1 (single isomer, unassigned)	5.00 to 6.00
C=CC(=O)N1CC[C@H](C(=O)N(C)[C@H](C(=O)N[C@H]2Cc3cccc(c3)-c3ccc4c(c3)c(c(-c3cccnc3[C@H](C)OC)n4CC(F)(F)F)CC(C)(C)COC(=O)[C@@H]3CCCN(N3)C2=O)C(C)C)C1 (atropisomer, axis not shown)	5.00 to 6.00
C=CC(=O)N1CC[C@@]2(C1)OCN([C@H](C(=O)N[C@H]1Cc3cccc(c3)-c3ccc4c(c3)c(c(-c3cccnc3[C@H](C)OC)n4CC)CC(C)(C)COC(=O)[C@@H]3CCCN(N3)C1=O)C(C)C)C2=O (atropisomer, axis not shown)	5.00 to 6.00

API: the following record is the query input.
Form field pIC50, entry C/C=C/C(=O)N1CC2(CCN(C(=O)N(C)[C@H](C(=O)N[C@H]3Cc4nc(cs4)-c4ccc5c(c4)c(c(-c4cccnc4[C@H](C)OC)n5CC)CC(C)(C)COC(=O)[C@@H]4CCCN(N4)C3=O)C(C)C)CC2)C1 (atropisomer, axis not shown) : 6.00 to 7.00
